Molecular target: recombinant RSV complex (Human respiratory syncytial virus A)
Assay: RSV Polymerase Inhibition Assay
Format: biochemical
pIC50: −log10 of the molar value.
readoutLabel: pIC50

{"compound": "COc1cc(C(=O)NCC(O)(CO)c2ccc(OC)c(-c3ccc(F)c(Cl)c3)n2)ccc1OC1CC1(F)F (centres unmarked) [Compound 469]", "pIC50": "> 6.00"}

Recorded pIC50 for COc1cc(C(=O)NCC(O)(c2cc(C(C)(C)NCC(=O)O)cc(-c3ccc(F)c(Cl)c3)n2)C(F)(F)F)ccc1OC1CC1 (centres unmarked) [Compound 515] , please?
> 6.00

Follow-up entry: COc1cc(C(=O)NCC(O)(c2cc(C(C)(C)NC(N)=O)cc(-c3ccc(F)c(Cl)c3)n2)C(F)(F)F)ccc1OC1CC1 (centres unmarked) [Compound 516]
> 6.00

====

Listing: IC50 of selected compounds
Biological target: recombinant RSV complex (Human respiratory syncytial virus A, UniProt P28887)
Sequence (P28887 whole entry): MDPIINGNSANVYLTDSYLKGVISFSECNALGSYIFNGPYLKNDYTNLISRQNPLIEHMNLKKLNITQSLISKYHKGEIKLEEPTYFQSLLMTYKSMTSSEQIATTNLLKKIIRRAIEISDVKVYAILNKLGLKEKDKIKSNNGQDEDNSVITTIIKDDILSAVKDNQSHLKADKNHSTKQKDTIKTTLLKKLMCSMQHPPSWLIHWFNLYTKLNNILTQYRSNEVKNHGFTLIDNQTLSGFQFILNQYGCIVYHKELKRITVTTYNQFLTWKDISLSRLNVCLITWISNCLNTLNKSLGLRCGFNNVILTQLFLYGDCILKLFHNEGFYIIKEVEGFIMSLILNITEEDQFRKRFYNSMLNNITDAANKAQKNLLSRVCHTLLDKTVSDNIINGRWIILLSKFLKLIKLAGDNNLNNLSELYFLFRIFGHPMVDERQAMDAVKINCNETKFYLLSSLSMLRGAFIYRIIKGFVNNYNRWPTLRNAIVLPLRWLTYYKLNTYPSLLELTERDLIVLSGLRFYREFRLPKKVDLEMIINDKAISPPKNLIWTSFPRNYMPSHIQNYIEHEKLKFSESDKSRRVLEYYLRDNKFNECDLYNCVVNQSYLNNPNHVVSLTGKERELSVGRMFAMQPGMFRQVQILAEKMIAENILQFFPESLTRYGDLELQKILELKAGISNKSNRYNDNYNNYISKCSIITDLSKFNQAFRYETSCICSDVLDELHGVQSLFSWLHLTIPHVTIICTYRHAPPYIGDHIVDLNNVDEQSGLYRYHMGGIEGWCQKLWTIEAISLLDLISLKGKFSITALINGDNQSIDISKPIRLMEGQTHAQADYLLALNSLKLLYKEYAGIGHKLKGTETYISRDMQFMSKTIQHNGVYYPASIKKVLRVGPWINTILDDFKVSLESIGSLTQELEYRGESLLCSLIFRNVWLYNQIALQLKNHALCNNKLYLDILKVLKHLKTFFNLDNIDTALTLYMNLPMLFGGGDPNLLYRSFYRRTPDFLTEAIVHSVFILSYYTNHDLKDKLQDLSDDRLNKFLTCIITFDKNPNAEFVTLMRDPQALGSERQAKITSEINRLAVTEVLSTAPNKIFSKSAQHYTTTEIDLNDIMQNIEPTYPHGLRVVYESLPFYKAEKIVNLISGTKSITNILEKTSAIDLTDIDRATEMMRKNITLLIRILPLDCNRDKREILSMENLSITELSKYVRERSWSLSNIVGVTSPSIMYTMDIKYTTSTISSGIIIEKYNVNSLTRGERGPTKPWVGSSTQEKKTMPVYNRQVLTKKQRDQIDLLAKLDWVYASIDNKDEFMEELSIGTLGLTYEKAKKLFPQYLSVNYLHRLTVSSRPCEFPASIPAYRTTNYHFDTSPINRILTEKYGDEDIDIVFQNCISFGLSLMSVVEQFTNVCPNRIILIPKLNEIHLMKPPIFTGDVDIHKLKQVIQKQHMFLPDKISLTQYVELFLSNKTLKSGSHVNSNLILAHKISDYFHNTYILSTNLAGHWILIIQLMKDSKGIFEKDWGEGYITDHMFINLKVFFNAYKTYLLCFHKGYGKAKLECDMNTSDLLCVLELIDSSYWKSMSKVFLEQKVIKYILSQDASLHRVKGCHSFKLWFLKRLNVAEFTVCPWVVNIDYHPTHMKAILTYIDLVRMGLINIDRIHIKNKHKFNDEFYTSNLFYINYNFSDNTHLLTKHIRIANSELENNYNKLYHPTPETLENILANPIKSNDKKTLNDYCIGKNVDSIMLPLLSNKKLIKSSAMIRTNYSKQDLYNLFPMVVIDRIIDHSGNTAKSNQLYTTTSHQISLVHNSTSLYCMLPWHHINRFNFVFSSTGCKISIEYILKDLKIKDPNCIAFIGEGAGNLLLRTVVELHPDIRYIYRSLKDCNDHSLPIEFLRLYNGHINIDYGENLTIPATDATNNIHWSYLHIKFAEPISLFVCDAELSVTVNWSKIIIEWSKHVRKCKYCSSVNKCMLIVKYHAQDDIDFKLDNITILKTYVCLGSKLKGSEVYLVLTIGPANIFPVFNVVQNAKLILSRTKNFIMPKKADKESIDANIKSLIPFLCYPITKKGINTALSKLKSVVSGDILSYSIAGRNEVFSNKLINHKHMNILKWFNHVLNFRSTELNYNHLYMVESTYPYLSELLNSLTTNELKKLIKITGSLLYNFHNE
Sequence (P03421 whole entry, further chain): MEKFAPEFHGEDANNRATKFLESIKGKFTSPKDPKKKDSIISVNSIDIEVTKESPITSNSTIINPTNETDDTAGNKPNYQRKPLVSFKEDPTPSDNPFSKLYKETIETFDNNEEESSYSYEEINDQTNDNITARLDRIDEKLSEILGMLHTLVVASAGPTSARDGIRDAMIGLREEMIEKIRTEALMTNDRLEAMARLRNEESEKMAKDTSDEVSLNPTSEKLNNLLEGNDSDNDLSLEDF
Experiment: RSV Polymerase Inhibition Assay
Type: biochemical

// solved cases for IC50 follow
{"compound": "COc1ccc(C(O)(CNC(=O)c2ccc3c(c2)NC(=O)CO3)C(F)(F)F)nc1-c1ccc(F)c(Cl)c1 (stereo not drawn)", "IC50": "< 1 µM"}
{"compound": "COc1cc(C(=O)NCC(O)(c2ccc(OC)c(-c3ccc(F)c(Cl)c3)n2)C2CC2)ccc1OCc1ncnn1C (stereo not drawn)", "IC50": "< 10 µM"}
{"compound": "COc1ccc(C(O)(CNC(=O)c2ccc3[nH]cnc3c2)C(F)(F)F)nc1-c1ccc(F)c(Cl)c1 (stereo not drawn)", "IC50": "< 10 µM"}
{"compound": "COc1cc(C(=O)NCC(N)(CF)c2ccc(OC)c(-c3ccc(F)c(Cl)c3)n2)ccc1OC1CC1 (stereo not drawn)", "IC50": "< 1 µM"}
{"compound": "COc1cc(C(=O)NCC(O)(c2ccc(OC)c(-c3ccc(F)c(Cl)c3)n2)C2CC2)ccc1OCCO (stereo not drawn)", "IC50": "< 1 µM"}
{"compound": "COc1cc(C(=O)NC[C@](O)(c2cc(C(C)(C)N)cc(-c3ccc(C#N)cc3)n2)C(F)(F)F)ccc1OC[C@@H](C)O [Compound 624b]", "IC50": "< 1 µM"}
{"compound": "COc1cc(C(=O)NCC(O)(c2ccc(OC)c(-c3ccc(F)c(Cl)c3)n2)C(F)(F)F)ccc1OC1CCCC1=O (stereo not drawn)", "IC50": "< 1 µM"}
{"compound": "COc1cc(C(=O)NCC(O)(c2cc(C3CCNCC3)cc(-c3ccc(F)c(Cl)c3)n2)C(F)(F)F)ccc1OC1CC1 (stereo not drawn)", "IC50": "< 1 µM"}
{"compound": "COc1cc(C(=O)NCC(O)(c2cc3c(c(-c4ccc(F)cc4)n2)OCC3(N)C(C)C)C(F)(F)F)ccc1OC1CC1 (stereo not drawn)", "IC50": "< 1 µM"}
{"compound": "COc1cc(C(=O)NCC(O)(CNC(C)=O)c2ccc(OC)c(-c3ccc(F)c(Cl)c3)n2)ccc1OCCO (stereo not drawn)", "IC50": "< 1 µM"}

Recorded IC50 for COc1cc(C(=O)NCC(O)(Cn2ccnn2)c2ccc(OC)c(-c3ccc(F)c(Cl)c3)n2)ccc1OCCO (stereo not drawn) , please?
< 1 µM

Follow-up entry: COc1cc(C(=O)NCC(C)(O)c2cc(C(C)(C)N)cc(-c3ccc(F)c(Cl)c3)n2)ccc1OC1CC1 (stereo not drawn)
< 1 µM

Follow-up entry: COc1cc(C(=O)NCC(O)(Cn2ccnc2)c2cc3c(c(-c4ccc(F)c(Cl)c4)n2)OCC3(C)C)cc2cccnc12 (stereo not drawn)
< 1 µM

Follow-up entry: COc1cc(C(=O)NCC(O)(c2cc(C(N)CO)cc(-c3ccc(F)c(Cl)c3)n2)C(F)(F)F)ccc1OC1CC1 (stereo not drawn)
< 1 µM

Follow-up entry: COc1cc(C(=O)NCC(C)(O)c2cc3c(c(-c4ccc(F)c(Cl)c4)n2)NCC3)ccc1OCCF (single isomer, unassigned) [Compound 294]
< 10 µM

Follow-up entry: COc1cc(C(=O)NCC(C)(O)c2cc3cc[nH]c3c(-c3ccc(F)c(Cl)c3)n2)ccc1OCCF (single isomer, unassigned) [Compound 296]
< 10 µM

Follow-up entry: COc1cc(C(=O)NCC(C)(O)c2ccc(OC)c(-c3ccc(F)c(Cl)c3)n2)ccc1N1CCCC1=O (stereo not drawn)
< 10 µM

Follow-up entry: COc1cc(C(=O)NCC(O)(c2cc(C(C)(C)N)cc(-c3ccc(F)c(C(F)(F)F)c3)n2)C(F)(F)F)ccc1OC1CC1 (stereo not drawn)
< 1 µM

Follow-up entry: CCC1(N)COc2c1cc(C(O)(CNC(=O)c1ccc(OC3CC3)c(OC)c1)C(F)(F)F)nc2-c1ccc(F)cc1 (stereo not drawn)
< 1 µM

Follow-up entry: COc1cc(C(=O)NCC(O)(c2cc(C(C)(C)N)cc(-c3ccc(I)nc3)n2)C(F)(F)F)ccc1OC1CC1 (stereo not drawn)
< 1 µM

Follow-up entry: COc1cc(C(=O)NCC(C)(O)c2cc3c(c(-c4ccc(F)c(Cl)c4)n2)OCC3(C)O)ccc1OC1CC1 (stereo not drawn)
< 1 µM

Recorded values, source patent US11021444B2.
